- testedOn: MgFur WT (Magnetospirillum gryphiswaldense MSR-1) (UniProt V6F4Q0)
- Sequence: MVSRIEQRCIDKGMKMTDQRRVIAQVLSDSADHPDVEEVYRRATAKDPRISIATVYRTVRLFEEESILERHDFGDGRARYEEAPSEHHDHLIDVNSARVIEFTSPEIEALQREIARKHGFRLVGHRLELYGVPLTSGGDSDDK
- method: SPR
- measurementConditions: 1 mM Mn2+, SPR: 20 mM Tris-HCl pH 8.0, 150 mM NaCl, 1 mM MnCl2, 0.005% Tween20, 25 C, EMSA: 40 mM HEPES pH 7.0, 125 mM NaCl, 2 mM FeSO4/MnCl2/EDTA, footprinting: …
valueKind: pKd
Worth noting: pKd values are minus log10 of concentrations stated in mol/L.

Query: Give measured pKd for TTAATCGCAACTCATTCGCAATTGC (double strand) [feoAB1 operator (SPR)] (MgFur WT (Magnetospirillum gryphiswaldense MSR-1) (UniProt V6F4Q0)).
Response: 7.07

* * *

- testedOn: MgFur K15A K15A (Magnetospirillum gryphiswaldense MSR-1) (UniProt V6F4Q0)
- Sequence: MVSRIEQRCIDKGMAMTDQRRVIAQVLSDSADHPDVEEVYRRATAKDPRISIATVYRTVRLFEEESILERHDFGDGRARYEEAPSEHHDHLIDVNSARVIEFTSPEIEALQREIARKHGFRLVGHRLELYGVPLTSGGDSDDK
- method: SPR
- measurementConditions: 1 mM Mn2+, SPR: 20 mM Tris-HCl pH 8.0, 150 mM NaCl, 1 mM MnCl2, 0.005% Tween20, 25 C, EMSA: 40 mM HEPES pH 7.0, 125 mM NaCl, 2 mM FeSO4/MnCl2/EDTA, footprinting: …
valueKind: Kd (nM)
Reply numerically in nM, unit not repeated.

Query: Give recorded Kd. TTAATCGCAACTCATTCGCAATTGC (double strand) [feoAB1 operator (SPR)]
Response: 977
